TARGET_OR_SYSTEM: soluble ST2 (sST2, IL1RL1 soluble isoform) (Homo sapiens, UniProt Q01638-2 Q01638-2:19-328)
Sequence (Q01638 other isoform, or with tags, fused parts or gaps): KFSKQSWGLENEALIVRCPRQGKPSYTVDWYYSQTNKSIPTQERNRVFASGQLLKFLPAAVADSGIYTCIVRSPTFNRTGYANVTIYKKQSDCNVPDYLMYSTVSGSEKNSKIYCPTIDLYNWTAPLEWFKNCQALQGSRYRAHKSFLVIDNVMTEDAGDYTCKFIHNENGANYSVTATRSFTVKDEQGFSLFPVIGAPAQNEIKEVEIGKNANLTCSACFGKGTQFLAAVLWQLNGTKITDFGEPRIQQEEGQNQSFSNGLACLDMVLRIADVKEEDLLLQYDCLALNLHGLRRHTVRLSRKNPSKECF
ASSAY_COMMENT: fiber-optic fluorescence, sST2 immobilised; 137 mM NaCl, 2.7 mM KCl, phosphate
OBSERVATION_TYPE: pKd
Please note pKd is a logarithmic value: minus log10 of concentration in mol/L. Answer with that number alone.

# lookup: pKd of TCCATCCACTCGGGGCGGGGGCTCGTGCTCTATTTC (ssDNA) [Apt4] 6.90
